Measured IC50 of individual entries
Molecular target: Recombinant human TDO comprising amino acids 19-407 (Homo sapiens)
Construct: Recombinant human TDO comprising amino acids 19-407 with a N-terminal hexahistidine tag; hexahistidine (His6) (N); made in house; host or cells: E. coli
Sequence (P48775 19-406 limits assumed): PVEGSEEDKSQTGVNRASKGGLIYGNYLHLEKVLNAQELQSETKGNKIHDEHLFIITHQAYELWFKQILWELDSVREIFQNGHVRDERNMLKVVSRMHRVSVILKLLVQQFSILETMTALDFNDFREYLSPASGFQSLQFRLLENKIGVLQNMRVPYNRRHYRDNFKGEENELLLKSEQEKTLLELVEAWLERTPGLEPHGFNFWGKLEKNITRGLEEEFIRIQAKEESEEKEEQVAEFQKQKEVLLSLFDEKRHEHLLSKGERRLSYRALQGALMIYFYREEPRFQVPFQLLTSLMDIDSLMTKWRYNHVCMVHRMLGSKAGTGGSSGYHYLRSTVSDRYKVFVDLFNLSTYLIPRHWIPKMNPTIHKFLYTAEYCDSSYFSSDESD
Test: TDO2 enzymatic assay (NFK quantified by LCMS)
Type: biochemical
Conditions: 15 nM enzyme, 200 μM L-tryptophan, pH7, 30 minutes pre-incubation at RT; mean values when measured multiple times; read-out: hTDO activity (IC50 in nM)
Value expressed in nM; do not type the unit.

Qu. For CC=Cc1sc2cncn2c1C(O)c1cn(-c2ccc(OC)cc2)nn1 (racemic) , what is its reported IC50?
Ans. 830

Qu. What IC50 value was documented for this compound, CCc1sc2cncn2c1C(O)c1cn(-c2ccc(C(=O)NCc3ccco3)cc2)nn1 (racemic) ?
Ans. 6770

# credit: patent US20200405696A1
